Experiment: Primary qHTS for delayed death inhibitors of the malarial parasite plastid, 96 hour incubation; also: potency is read from the fitted curve at half-maximal effect
Settings: P. falciparum luciferase reporter growth; series mostly up to 28.7 µM
Hit rate of the full screen: of about 320,000 compounds, about 22,000 (6.9%) were called active. Not shown: some 27% with an inconclusive outcome. What follows is part of a selection rich in actives, with near analogues and random picks from the rest.
Property label: Potency

Compound | Potency
Cc1ccccc1OCC(=O)Nc1nnc(S(=O)(=O)N2CCCC2)s1 | inactive
CNCC(O)c1ccc(O)c(O)c1 (centres undefined) | inactive
O=C(c1ccc(NS(=O)(=O)c2ccc3[nH]c(=O)[nH]c3c2)cc1)N1CCCCC1 | inactive
O=C(CSc1nnc(-c2cccs2)n1Cc1ccccc1)N1CCc2ccccc2C1 | 10.4 µM (active)
Cc1cccc(C)c1NC(=O)CNC(=O)c1c(C)nn(-c2ccccc2)c1C | inactive
COc1ccc(CC(=O)OC(C)C(=O)Nc2ccc(S(N)(=O)=O)cc2)cc1 (centres undefined) | inactive
CSc1cc(C)[nH]c(=O)n1 | inactive
Cc1ccc(NC(=O)[C@H](Cc2ccccc2)NC(=O)C2CCNCC2)cc1 | inactive

Just so you know, measured Potency for CCC(C)(C)n1nnnc1C(c1ccc(OC)c(OC)c1)N1CCN(C(=O)c2ccco2)CC1 (centres undefined) came out at inactive

Kindly note the recorded Potency for `O=C(Nc1nnc(SCc2c(Cl)cccc2Cl)s1)c1cccc([N+](=O)[O-])c1` , which is inactive

Potency recorded for this compound, `CCn1c(Cc2ccc(OC)cc2)nnc1SCC(=O)Nc1ccc(N2CCOCC2)cc1` , is inactive

Input `Cc1snc(SCc2c(F)cccc2Cl)c1C#N` . Output Potency: inactive

The compound identified as CC1(C)CC(=O)C2=C(C1)Nc1cc(C(=O)c3ccccc3)ccc1NC2c1ccccn1 (centres undefined) registered its Potency at inactive
